- TESTED_TARGET: wild-type c-Met (Homo sapiens, UniProt P08581)
- Sequence (P08581 25-1390): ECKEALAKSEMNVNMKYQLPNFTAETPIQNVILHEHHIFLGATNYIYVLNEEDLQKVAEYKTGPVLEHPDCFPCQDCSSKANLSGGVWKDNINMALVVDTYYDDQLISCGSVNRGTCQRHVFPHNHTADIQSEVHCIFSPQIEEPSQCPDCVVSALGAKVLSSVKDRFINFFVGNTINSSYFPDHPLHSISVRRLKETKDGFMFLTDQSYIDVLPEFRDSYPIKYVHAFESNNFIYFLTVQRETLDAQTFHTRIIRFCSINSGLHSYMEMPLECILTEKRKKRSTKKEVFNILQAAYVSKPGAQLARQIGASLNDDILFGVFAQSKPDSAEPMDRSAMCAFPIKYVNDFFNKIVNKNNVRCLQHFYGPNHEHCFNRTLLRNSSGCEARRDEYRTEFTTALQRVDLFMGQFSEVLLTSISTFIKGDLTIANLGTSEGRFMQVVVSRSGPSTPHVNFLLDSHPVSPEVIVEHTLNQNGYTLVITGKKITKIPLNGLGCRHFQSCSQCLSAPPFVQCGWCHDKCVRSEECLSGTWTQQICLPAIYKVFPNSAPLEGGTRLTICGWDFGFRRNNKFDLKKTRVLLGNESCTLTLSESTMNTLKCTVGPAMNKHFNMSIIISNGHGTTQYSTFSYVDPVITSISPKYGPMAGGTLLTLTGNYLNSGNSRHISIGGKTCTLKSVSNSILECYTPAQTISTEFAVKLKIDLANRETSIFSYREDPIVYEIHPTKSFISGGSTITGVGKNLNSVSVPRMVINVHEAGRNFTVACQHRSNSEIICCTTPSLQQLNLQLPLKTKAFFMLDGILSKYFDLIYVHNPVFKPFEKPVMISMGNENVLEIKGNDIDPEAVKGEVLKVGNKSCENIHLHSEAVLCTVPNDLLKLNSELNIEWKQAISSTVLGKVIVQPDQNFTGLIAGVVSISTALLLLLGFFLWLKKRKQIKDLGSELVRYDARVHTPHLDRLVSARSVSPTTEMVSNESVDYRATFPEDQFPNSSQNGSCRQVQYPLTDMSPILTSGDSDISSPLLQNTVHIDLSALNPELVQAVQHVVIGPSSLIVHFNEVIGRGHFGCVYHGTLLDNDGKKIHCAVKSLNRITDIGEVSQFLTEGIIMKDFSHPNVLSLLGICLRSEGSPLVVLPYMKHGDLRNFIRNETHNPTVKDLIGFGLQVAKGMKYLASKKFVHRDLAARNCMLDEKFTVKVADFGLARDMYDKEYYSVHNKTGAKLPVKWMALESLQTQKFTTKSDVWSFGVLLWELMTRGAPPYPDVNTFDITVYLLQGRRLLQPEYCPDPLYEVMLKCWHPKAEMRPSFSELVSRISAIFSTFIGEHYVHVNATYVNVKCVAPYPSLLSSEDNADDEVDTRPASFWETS
- PROTOCOL_TEXT: Phosphorylation inhibition assay (Z′-LYTE Kinase Assay-Tyr6 Peptide), wild-type c-Met
- Assay type: biochemical
- MEASUREMENT_CONDITIONS: cell-free kinase assay, 200 μM ATP; read-out: IC50, activation of wild-type c-Met
PROPERTY_MEASURED: pIC50
Remember the convention: pIC50 equals -log10 of concentration in molar.

get_value(item= O=S(=O)(O)c1cc(N=C=S)ccc1C=Cc1ccc(N=C=S)cc1S(=O)(=O)O [DIDS] , readout=pIC50) returns 6.52
